Molecular target: ERα (Homo sapiens, UniProt P03372)
Test: Degradation of ERα in MCF-7 cells (immunoblotting, 4 h)
Type: cell-based
Details: 10nM compound
Below, each entry is listed with its recorded Degradation rate (%) of ERα in MCF-7 cells.
endpointLabel: Degradation rate (%) of ERα in MCF-7 cells

[
  {
    "molecule": "O=C1CCC(N2Cc3c(ccc4c3OCC43CCN(C4CC5CC4CN5C(=O)C4CCN(c5ccc([C@@H]6c7ccc(O)cc7CC[C@@H]6c6ccccc6)cc5)CC4)CC3)C2=O)C(=O)N1 (some centres unmarked) [D2]",
    "systemTested": "ERα (Homo sapiens, UniProt P03372)",
    "recordedResult": 29
  },
  {
    "molecule": "O=C1CCC(N2Cc3c(ccc4c3OCC43CCN(C(=O)CN4CCC5(CC4)CCN(c4ccc([C@@H]6c7ccc(O)cc7CC[C@@H]6c6ccccc6)cc4)C5)CC3)C2=O)C(=O)N1 (some centres unmarked)",
    "systemTested": "ERα (Homo sapiens, UniProt P03372)",
    "recordedResult": 14
  },
  {
    "molecule": "C[C@@H]1Cc2c([nH]c3ccccc23)[C@@H](c2c(F)cc(N3CCC4(CCC(N5CCC6(CC5)COc5c6ccc6c5CN(C5CCC(=O)NC5=O)C6=O)CC4)CC3)cc2F)N1CC(F)F (some centres unmarked)",
    "systemTested": "ERα (Homo sapiens, UniProt P03372)",
    "recordedResult": 70
  },
  {
    "molecule": "O=C1CCC(N2Cc3c(ccc4c3OCC43CCN(C4CCC5(CC4)CN(c4ccc([C@@H]6c7ccc(O)cc7CC[C@@H]6c6ccccc6)cc4)C5)CC3)C2=O)C(=O)N1 (some centres unmarked)",
    "systemTested": "ERα (Homo sapiens, UniProt P03372)",
    "recordedResult": 60
  },
  {
    "molecule": "CN(C(=O)CN1CC2(CCc3cc4c(cc3O2)CN(C2CCC(=O)NC2=O)C4=O)C1)C1CCC2(CC1)CN(c1ccc([C@@H]3c4ccc(O)cc4CC[C@@H]3c3ccccc3)cc1)C2 (some centres unmarked)",
    "systemTested": "ERα (Homo sapiens, UniProt P03372)",
    "recordedResult": 59
  },
  {
    "molecule": "O=C1CCC(N2Cc3c(ccc4c3OCC43CCN(S(=O)(=O)[C@H]4CC[C@H](C(=O)N5CCN(c6ccc([C@@H]7c8ccc(O)cc8CC[C@@H]7c7ccccc7)cc6)CC5)CC4)CC3)C2=O)C(=O)N1 (some centres unmarked)",
    "systemTested": "ERα (Homo sapiens, UniProt P03372)",
    "recordedResult": 66
  },
  {
    "molecule": "O=C1CCC(N2Cc3cc4c(cc3C2=O)OCC2(CCN(C3CCC5(CC3)CN(c3ccc(C6c7ccc(O)cc7CCC6c6ccccc6)cc3)C5)CC2)O4)C(=O)N1 (centres unmarked)",
    "systemTested": "ERα (Homo sapiens, UniProt P03372)",
    "recordedResult": 4
  },
  {
    "molecule": "O=C1CCC(N2Cc3c(ccc4c3OCC43CCN(C4CCN(CC5CCN(c6ccc([C@@H]7c8ccc(O)cc8CC[C@@H]7c7ccccc7)cc6)CC5)C(=O)C4)CC3)C2=O)C(=O)N1 (some centres unmarked)",
    "systemTested": "ERα (Homo sapiens, UniProt P03372)",
    "recordedResult": 4
  },
  {
    "molecule": "CC1(C)CC(N2CCC3(CC2)COc2c3ccc3c2CN(C2CCC(=O)NC2=O)C3=O)CCN1C(=O)C1CCN(c2ccc([C@@H]3c4ccc(O)cc4CC[C@@H]3c3ccccc3)cc2)CC1 (some centres unmarked)",
    "systemTested": "ERα (Homo sapiens, UniProt P03372)",
    "recordedResult": 86
  },
  {
    "molecule": "O=C1CCC(N2Cc3c(ccc4c3OCC43CCN(C4CCN(C5CC6(CCN(c7ccc([C@@H]8c9ccc(O)cc9CC[C@@H]8c8ccccc8)cc7)CC6)C5)[C@@H](C(=O)N5CC(F)(F)C5)C4)CC3)C2=O)C(=O)N1 (some centres unmarked)",
    "systemTested": "ERα (Homo sapiens, UniProt P03372)",
    "recordedResult": 90
  },
  {
    "molecule": "C[C@@H]1Cc2cc(O)ccc2C(c2c(F)cc(N3CCC(N4CCC(C(=O)N5CCC6(CC5)COc5c6ccc6c5CN(C5CCC(=O)NC5=O)C6=O)CC4)CC3)cc2F)N1CC(F)F (some centres unmarked)",
    "systemTested": "ERα (Homo sapiens, UniProt P03372)",
    "recordedResult": 45
  }
]

----------
Test system: T-47D cells
Test: Inhibition of cell proliferation in T-47D cells (CCK-8, 6 days)
Type: cell-based
Conditions: 6 days of treatment, Table 3
The label label 1 is reserved for IC50 strictly under 2 nM; label 0 covers values equal to or above it.

[
  {
    "compound": "O=C1CCC(N2Cc3c(ccc4c3OCC43CCN(CC4CCN(c5ccc([C@@H]6c7ccc(O)cc7CC[C@@H]6c6ccccc6)cc5)CC4)CC3)C2=O)C(=O)N1 (stereo partly shown) [H8]",
    "categoryLabel": "label 0"
  },
  {
    "compound": "C[C@@H]1CC2(CCN(c3ccc([C@@H]4c5ccc(O)cc5CC[C@@H]4c4ccccc4)cc3)CC2)CN1CC(=O)N1CCC2(CC1)COc1c2ccc2c1CN(C1CCC(=O)NC1=O)C2=O (stereo partly shown) [A90]",
    "categoryLabel": "label 1"
  },
  {
    "compound": "O=C1CCC(N2Cc3c(ccc4c3OCC43CCN(C(=O)C4CCN(C5CCN(c6ccc([C@@H]7c8ccc(O)cc8CC[C@@H]7c7ccccc7)cc6)CC5)CC4)CC3)C2=O)C(=O)N1 (stereo partly shown) [H22]",
    "categoryLabel": "label 1"
  },
  {
    "compound": "CCNC(=O)[C@H]1CC(N2CCC3(CC2)COc2c3ccc3c2CN(C2CCC(=O)NC2=O)C3=O)CCN1C1CC2(CCN(c3ccc([C@@H]4c5ccc(O)cc5CC[C@@H]4c4ccccc4)cc3)CC2)C1 (stereo partly shown) [K26]",
    "categoryLabel": "label 1"
  },
  {
    "compound": "O=C1CCC(N2Cc3cc4c(cc3C2=O)OC2(CC4)CN(C(=O)C3CC4(CCN(c5ccc([C@@H]6c7ccc(O)cc7CC[C@@H]6c6ccccc6)cc5)CC4)C3)C2)C(=O)N1 (stereo partly shown) [A49]",
    "categoryLabel": "label 0"
  },
  {
    "compound": "CCC(C(=O)N1CCC2(CC1)COc1c2ccc2c1CN(C1CCC(=O)NC1=O)C2=O)N1CCC2(CCN(c3ccc([C@@H]4c5ccc(O)cc5CC[C@@H]4c4ccccc4)cc3)CC2)C1 (stereo partly shown) [A95]",
    "categoryLabel": "label 1"
  },
  {
    "compound": "O=C1CCC(N2Cc3c(ccc4c3OCC43CCN(C4CC5(CCC6(CC5)CN(C5CCN(c7ccc([C@@H]8c9ccc(O)cc9CC[C@@H]8c8ccccc8)cc7)CC5)C6)C4)CC3)C2=O)C(=O)N1 (stereo partly shown) [K16]",
    "categoryLabel": "label 0"
  },
  {
    "compound": "C[C@@H]1Cc2c([nH]c3ccccc23)[C@@H](c2c(F)cc(N3CCN(C[C@H]4CC[C@H](C(=O)N5CCC6(CC5)COc5c6ccc6c5CN(C5CCC(=O)NC5=O)C6=O)CC4)CC3)cc2F)N1CC(F)F (stereo partly shown) [A114]",
    "categoryLabel": "label 1"
  },
  {
    "compound": "O=C1CCC(N2Cc3c(ccc4c3OCC43CCN(C4CCN(C(=O)C5CCN(c6ccc([C@@H]7c8ccc(O)cc8CC[C@@H]7c7ccccc7)cc6)CC5)[C@@H](C(=O)N5CCC(F)(F)C5)C4)CC3)C2=O)C(=O)N1 (stereo partly shown) [C2]",
    "categoryLabel": "label 1"
  },
  {
    "compound": "O=C1CCC(N2Cc3cc4c(cc3C2=O)OC2(CC4)CN(CC3CCC4(CC3)CCN(c3ccc([C@@H]5c6ccc(O)cc6CC[C@@H]5c5ccccc5)cc3)CC4)C2)C(=O)N1 (stereo partly shown) [A37]",
    "categoryLabel": "label 0"
  }
]

----------
Target: UniProt P03372
Sequence (P03372 1-595): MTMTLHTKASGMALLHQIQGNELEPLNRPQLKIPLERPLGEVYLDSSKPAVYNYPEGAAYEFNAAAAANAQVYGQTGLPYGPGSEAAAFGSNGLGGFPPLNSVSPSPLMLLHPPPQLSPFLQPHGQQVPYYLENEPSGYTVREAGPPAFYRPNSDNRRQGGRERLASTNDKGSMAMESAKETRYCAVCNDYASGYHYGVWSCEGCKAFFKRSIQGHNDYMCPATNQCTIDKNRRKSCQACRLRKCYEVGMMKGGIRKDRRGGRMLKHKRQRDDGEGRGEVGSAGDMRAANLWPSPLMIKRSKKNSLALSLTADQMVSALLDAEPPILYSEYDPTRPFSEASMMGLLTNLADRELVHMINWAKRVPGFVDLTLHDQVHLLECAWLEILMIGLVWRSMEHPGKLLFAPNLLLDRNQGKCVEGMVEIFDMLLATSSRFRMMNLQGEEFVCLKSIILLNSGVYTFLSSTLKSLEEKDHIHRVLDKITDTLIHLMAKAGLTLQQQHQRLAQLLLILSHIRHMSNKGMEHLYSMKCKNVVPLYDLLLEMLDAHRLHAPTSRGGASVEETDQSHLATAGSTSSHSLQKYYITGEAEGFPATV
Assay: Degradation of ERα in T-47D cells (immunoblotting, 4 h)
Type: cell-based
Parameters: host or cells: T-47D
Conditions: 1nM compound
endpointLabel: Degradation rate (%) of ERα in T-47D cells

[
  {
    "molecule": "O=C1CCC(N2Cc3c(ccc4c3OCC43CCN(CC4(F)CCN(C(=O)C5CCN(c6ccc([C@@H]7c8ccc(O)cc8CC[C@@H]7c7ccccc7)cc6)CC5)CC4)CC3)C2=O)C(=O)N1 (some centres unmarked)",
    "recordedResult": 38
  },
  {
    "molecule": "O=C1CCC(N2Cc3c(ccc4c3OCC43CCN(CC(=O)N4CC5(CCC(C#Cc6ccc([C@@H]7c8ccc(O)cc8CC[C@@H]7c7ccccc7)cc6)CC5)C4)CC3)C2=O)C(=O)N1 (some centres unmarked)",
    "recordedResult": 15
  },
  {
    "molecule": "O=C1CCC(N2Cc3c(ccc4c3OCC43CCN(C4CCN(CC5CCN(c6ccc([C@@H]7c8ccc(O)cc8CC[C@@H]7c7ccccc7)cc6)CC5)CC4)CC3)C2=O)C(=O)N1 (some centres unmarked)",
    "recordedResult": 22
  },
  {
    "molecule": "O=C1CCC(N2Cc3c(ccc4c3OCC43CCN(C4CCN(C(=O)C5CCN(c6ccc(C7c8ccc(O)cc8CCC7c7ccccc7)cc6)CC5)C(C(=O)N5CCCC5)C4)CC3)C2=O)C(=O)N1 (centres unmarked)",
    "recordedResult": 63
  },
  {
    "molecule": "O=C1CCC(N2Cc3cc4c(cc3C2=O)OC2(CC4)CN(C3CC4(CCC5(CCN(c6ccc([C@@H]7c8ccc(O)cc8CC[C@@H]7c7ccccc7)cc6)CC5)CC4)C3)C2)C(=O)N1 (some centres unmarked)",
    "recordedResult": 16
  }
]
